# ASSAY_PROCEDURE: Urine PK, Part A single oral doses in healthy participants
# Format: in vivo, human
# EXPERIMENTAL_SETUP: human, urine and plasma, po, single oral dose; read-out: Geometric mean CLR, range across all doses
ENDPOINT_NAME: CL renal

Read off the recorded CL renal for OC[C@H]1O[C@H](Sc2cncc(Br)c2)[C@H](O)[C@@H](n2cc(-c3cc(F)c(F)c(F)c3)nn2)[C@H]1O [GB1211]
30.5 to 44.5 mL/min

###

# ASSAY_PROCEDURE: Plasma PK, Part A single oral doses in healthy participants
# Type: in vivo, human
# EXPERIMENTAL_SETUP: human, plasma, oral, 50 mg, single dose 50 mg (10 × 5 mg), fasted; read-out: Tmax, median (min–max)
ENDPOINT_NAME: Tmax (h)
Lab book: enter the figure in h, no units written.

Read off the recorded Tmax for OC[C@H]1O[C@H](Sc2cncc(Br)c2)[C@H](O)[C@@H](n2cc(-c3cc(F)c(F)c(F)c3)nn2)[C@H]1O [GB1211]
1.75
